- Tested on: DU-145 prostate
- Assay method text: NCI-60 one-dose screen, 48 h (100 = growth as untreated, 0 = no growth, -100 = all killed)
- Measurement context: 10 µM
Compounds without any hit were thinned out: in the full panel of roughly 83,000, 20% have a hit.
Readout kind: growth (%)
Answers are plain numbers, in %.

# example entries with known answers
# Compound, Measured value
data = [
    ("COc1ccc(-c2cc(-c3cccc(NS(C)(=O)=O)c3)nc(N)c2C#N)cc1", 5.82),
    ("Cc1cc(O)c(C(C)(C)C)cc1Sc1cc(C(C)(C)C)c(O)cc1C", 50),
    ("Nc1cc2c(cc1Cl)-c1ccc([N+](=O)[O-])cc1/C2=N\\O", 63),
    ("Cc1cc(=O)n2nnc3c4ccccc4ccc3n12", 98.8),
    ("Cc1nc2ccccc2c(N)c1-c1cc(C)c2c(C)nc3ccccc3c2n1", -82.4),
]

Dear colleague, could you please provide growth for the compounds listed below?
1. COc1cccc(C2C3=C(COC3=O)N(CCO)c3cc(OC)ccc32)c1 (stereo not given)
2. O=C(Nc1ccc(CN2CCc3nc4cc(O)c(O)cc4cc32)cc1)c1ccc(Cl)c(Cl)c1
3. O=C1ON=[N+](c2ccc(Cc3ccc([N+]4=NOC(=O)C4CN4CCOCC4)cc3)cc2)C1CN1CCOCC1 (stereo not given)
4. COc1cc(C(=O)N2CCN(c3ccccc3OC)CC2)c(N)cc1OCCCN1CCN(c2ccccc2OC)CC1
5. Cn1c([N+](=O)[O-])cnc1/C=C1\Oc2cc(Cl)ccc2C1=O

[-4.6, 104, 101, 103, -18.3]

* * *

- Tested on: U251 CNS
- Assay method text: NCI-60 one-dose screen, 48 h (100 = growth as untreated, 0 = no growth, -100 = all killed)
- Measurement context: 10 µM
Compounds without any hit were thinned out: in the full panel of roughly 83,000, 20% have a hit.
Give growth for every item shown.
Answers are plain numbers, in %.

Please review the entries below; each comes with its answer.
# Molecule, Readout kind, Reading unit, Measured value
data = [
    ("COc1ccc([N+](=O)[O-])c(C(=O)O)c1", "growth", "%", 101),
    ("Cc1ccc(N=Nc2c(N)nc(N)[nH]c2=O)cc1C", "growth", "%", 103),
    ("CC1(O)CCC2CC3OC3(C)CCC3OC3(C)CCC1C2(C)C (stereo unspecified)", "growth", "%", 96),
    ("COc1ccc(OC)c(/C=C/c2nc(SC)n(-c3ccc(Cl)cc3)n2)c1", "growth", "%", 78.1),
    ("COC(=O)C1(C)Cc2cc(OC(C)=O)c(OC(C)=O)cc2N1 (stereo unspecified)", "growth", "%", 81.5),
]

Reported growth for Nc1c(C(=O)Nc2ccccc2)sc2nc3c(cc12)C(O)CCC3 (stereo unspecified) : what is it?
23.9

* * *

- Test system: BT-549 breast
- Assay method text: NCI-60 one-dose screen, 48 h (100 = growth as untreated, 0 = no growth, -100 = all killed)
- Measurement context: 10 µM
The panel holds about 83,000 compounds, 20% with a hit somewhere; the sample as a whole holds those more often.
Rule for this label: Fulfilled means growth is less than 90%; Not fulfilled means growth is at least 90%.

# Compound, Tgt, Qualitative label
records = [
    ("COc1ccc(-c2nc3sccn3c2-c2nc3c([nH]2)C(=O)c2ccccc2C3=O)cc1", "BT-549 breast", "Not fulfilled"),
]

Dear reviewer, please state whether `CSc1nc(=O)n(Cc2ccc(Cl)cc2)c(=O)[nH]1` has growth strictly beneath 90%.
Not fulfilled

Bench note: check whether COc1ccc(OC)c2c1C(=O)CC2C (stereo unspecified) shows growth below 90%
Not fulfilled

Find out if reported growth for `COc1ccc(-c2nn(-c3cccc(NC(=O)Nc4ccc(Cl)c(C(F)(F)F)c4)c3)cc2-c2ccncc2)cc1Cl` is less than 90%
Fulfilled

* * *

- Test system: SNB-75 CNS
- Assay method text: NCI-60 one-dose screen, 48 h (100 = growth as untreated, 0 = no growth, -100 = all killed)
- Measurement context: 10 µM
About 83,000 compounds went through this panel and 20% of them were active in at least one assay; those are over-represented in the sample as a whole.
Entries whose growth is below 80% take TRUE; entries at or above 80% take FALSE.

Answered examples (3):
# Mol, Qualitative label
data = [
    ("CC(=O)[C@H]1CC[C@H]2[C@@H]3CCC4=CC(=O)C=C[C@]4(C)[C@H]3CC[C@]12C", "FALSE"),
    ("CCN1Cc2c(/C=C/c3ccccc3)nc3ccc(OC)cc3c2N(c2cccc(Cl)c2)C1", "TRUE"),
    ("O=c1[nH]c(-c2ccc(Cl)cc2)nc2sc3c(c12)CCCC3", "TRUE"),
]

Then there is this compound:
Threshold test, growth < 80%: `NC1=NC(=O)C(c2ccccc2)(c2ccccc2)S1`
FALSE

* * *

- Test system: SF-539 CNS
- Assay method text: NCI-60 one-dose screen, 48 h
- Measurement context: 10 µM
Compounds without any hit were thinned out: in the full panel of roughly 83,000, 20% have a hit. Active and inactive are the calls of the source. Rule for the calls: active = growth percent below 10; inactive = the rest.
Mark one answer only. Choices: true (1) for active, false (0) for inactive

For orientation, consider the following solved cases.
# Compound, Qualitative label
rows = [
    ("O=C(CSSCC(=O)c1ccc(Cl)cc1)c1ccc(Cl)cc1", "false (0)"),
    ("COc1ccc2c(c1)C(=O)c1c-2c(OCCN2CCCCC2)nc2ccc(OC)cc12", "false (0)"),
    ("CCOC(=O)N1C=CC2C=CC1C1C=CC=CC2N1C(=O)OCC (centres undefined)", "false (0)"),
    ("CCOC(=O)C1CCc2c(ccc3ccccc23)N1CCC#N (centres undefined)", "false (0)"),
    ("C=C(NC(=O)C(=C)NC(=O)c1csc(C2=NC3c4csc(n4)C4NC(=O)c5csc(n5)C(C(C)(O)C(C)O)NC(=O)C5CSC(=N5)/C(=C/C)NC(=O)C(C(C)O)NC(=O)c5csc(n5)C3(CC2)NC(=O)C(C)NC(=O)C(=C)NC(=O)C(=C)NC(=O)C(C(C)C)NC2C=Cc3c(C(C)O)cc(nc3C2O)C(=O)OC4C)n1)C(N)=O (centres undefined)", "true (1)"),
]

Status in this test for `N=c1nc(N)ncn1-c1ccccc1` ?
false (0)

Please let me know the test result on file for `O=C1/C(=C/c2ccc([N+](=O)[O-])o2)Oc2ccccc21` .
true (1)

Name the outcome recorded for `COc1ccc(C(=O)/C=C/c2cc(-c3cc(OC)c(OC)c(OC)c3)n[nH]2)cc1` in the assay.
true (1)

What is the recorded call for this compound in the test? `Cc1ccc(NC(=O)CSc2nc3ccccc3c(=O)n2CCc2ccccc2)c(C(=O)O)c1`
false (0)

Just curious, what result did `COc1cccc(-c2cc(-c3cccc(NS(C)(=O)=O)c3)nc(N)c2C#N)c1O` get here?
true (1)

* * *

For each of the molecules below, state its growth.
- System: SK-MEL-2 melanoma
- Assay method text: NCI-60 one-dose screen, 48 h (100 = growth as untreated, 0 = no growth, -100 = all killed)
- Measurement context: 10 µM
The panel holds about 83,000 compounds, 20% with a hit somewhere; the sample as a whole holds those more often.
Answers are plain numbers, in %.

Worked examples, 3 molecules total:
# Molecule, Reading unit, growth
rows = [
    ("Cc1cccc(Cl)c1NC(=O)c1ccc2nc(NC(=O)NC3CCN(C)CC3)sc2c1", "%", 126),
    ("COc1cccc(-c2cc(-c3cccc(NS(C)(=O)=O)c3)nc(N)c2C#N)c1O", "%", 69),
    ("O=C(Nc1nc(-c2ccccc2Cl)cs1)c1cc(-c2ccc(Cl)cc2)nc2ccc(Cl)cc12", "%", 10.7),
]

Record growth for all entries; do not skip any.
1. COc1cc2cc3c(nc2cc1OC)CCN3Cc1ccc(NC(=O)Nc2ccc(F)cc2F)cc1
2. CCN(CC)CCC(CNc1c(C)cnc2cc(Cl)ccc12)c1ccc(Cl)c(Cl)c1 (stereo not given)

1: 88.2; 2: 107

* * *

- Tested on: PC-3 prostate
- Assay method text: NCI-60 one-dose screen, 48 h
- Measurement context: 10 µM
About 83,000 compounds went through this panel and 20% of them were active in at least one assay; those are over-represented in the sample as a whole. Calls of active or inactive are those of the source. Rule for the calls: active = growth percent below 10; inactive = the rest.
Select the correct class. Options are T = active, F = inactive and nothing else.

Look over these answered cases.
# Molecule, Tgt, Qualitative label
data = [
    ("Nc1ncn(C2OC(CO)C(O)C2O)c(=O)n1 (stereo unspecified)", "PC-3 prostate", "T"),
    ("O=C1C(c2ccccc2)C2C=CC(C2)N1O (stereo unspecified)", "PC-3 prostate", "F"),
    ("O=C1OCC2=C1C(c1cccc(Cl)c1)c1cc3c(cc1N2CCO)OCO3 (stereo unspecified)", "PC-3 prostate", "F"),
    ("Cc1cc(N(CCCNc2ccnc3cc(Cl)ccc23)Cc2ccc3c(c2)OCO3)nc(N2CCOCC2)n1", "PC-3 prostate", "F"),
    ("CC/C(=C(/c1ccc(OCCN(C)C)cc1)c1ccc(OC(=O)CCC(=O)c2c(C)[nH]c(/C=C3\\N=C(c4ccc[nH]4)C=C3OC)c2C)cc1)c1ccccc1", "PC-3 prostate", "F"),
    ("CC1=C(N2CCOCC2)C(N2CCOCC2)=C(C)C(=O)C1=O", "PC-3 prostate", "F"),
    ("Cc1cccc(Cl)c1NC(=O)c1ccc2nc(NC(=O)NC3CCN(C)CC3)sc2c1", "PC-3 prostate", "F"),
    ("CC(=O)CSC(C)=O", "PC-3 prostate", "F"),
    ("Cc1ccc(C(=O)N2C/C(=C/c3ccc(F)cc3)C(=O)/C(=C/c3ccc(F)cc3)C2)cc1", "PC-3 prostate", "F"),
    ("CCC(=O)N1C/C(=C/c2ccc(Cl)cc2)C(=O)/C(=C/c2ccc(Cl)cc2)C1", "PC-3 prostate", "T"),
]

What call does the record list for `N=C1c2nc3n(c2C(=O)c2nc4n(c21)CCCC4)CCCC3` ?
F

Please state the recorded outcome for this molecule: `O=C1/C(=C\c2ccccc2)CN(C(=O)c2ccccc2)C/C1=C\c1ccccc1`
T

GET /call?item= `CCCCN(CCCC)c1cc(C(=O)CCCCCN)c2ccccc2n1` returns the recorded outcome of this test.
T

I would be grateful if you could indicate the recorded call for `COc1cc(Nc2ccnc(NCCNc3ccnc4cc(Cl)ccc34)n2)cc(OC)c1` .
F

State the result this test recorded for `Nc1ccc2c(c1)Cc1cc(N)c(Br)cc1-2` .
F

Given CCN1CCC(CCOC)(CN2c3ccccc3Sc3ccc(Cl)cc32)C1 (stereo unspecified) , state the outcome it received in this test.
F

Field: outcome | Entry: `Nc1ncn([C@@H]2O[C@H](CO)[C@@H](O)[C@H]2O)c(=O)n1`
F
